Test system: MDA-MB-231 (Breast Carcinoma)
Experiment: combination Emax (second highest fraction inhibited in the dose matrix, 72 h); higher = more inhibition; extreme values may be limits of the assay
// label = satisfied if combination Emax is not less than 0.7, otherwise not satisfied

Known results for compounds:
{"Compound": "CC1(C)CCC(CN2CCN(c3ccc(C(=O)NS(=O)(=O)c4ccc(NCC5CCOCC5)c([N+](=O)[O-])c4)c(Oc4cnc5[nH]ccc5c4)c3)CC2)=C(c2ccc(Cl)cc2)C1 [Venetoclax] + CCN(CCO)CCCOc1ccc2c(Nc3cc(CC(=O)Nc4cccc(F)c4)[nH]n3)ncnc2c1 [AZD2811] (first compound max 1 µM, 7x7, partner max 1 µM)", "Label Value": "not satisfied"}
{"Compound": "C[C@@H]1COCCN1c1cc(C2([S@](C)(=N)=O)CC2)nc(-c2ccnc3[nH]ccc23)n1 [AZD6738] + C1CC(C1)(C(=O)[O-])C(=O)[O-].N.N.[Pt+2] [Carboplatin] (first compound max 10 µM, 7x7, partner max 10 µM)", "Label Value": "not satisfied"}
{"Compound": "CN(CCO)CC[C@H](CSc1ccccc1)Nc1ccc(S(=O)(=O)NC(=O)c2ccc(N3CCC([C@@H](O)c4ccccc4-c4ccc(Cl)cc4)CC3)cc2)cc1S(=O)(=O)C(F)(F)F [AZD4320] + CN(C)CCCOc1ccc(-c2ccc3ncc4c(c3c2)n(C2CCOCC2)c(=O)n4C)cn1 [AZD0156] (first compound max 1 µM, 7x7, partner max 1 µM)", "Label Value": "not satisfied"}
{"Compound": "CN(CCO)CC[C@H](CSc1ccccc1)Nc1ccc(S(=O)(=O)NC(=O)c2ccc(N3CCC([C@@H](O)c4ccccc4-c4ccc(Cl)cc4)CC3)cc2)cc1S(=O)(=O)C(F)(F)F [AZD4320] + Nc1ccn([C@@H]2O[C@H](CO)[C@@H](O)C2(F)F)c(=O)n1 [Gemcitabine] (first compound max 1 µM, 7x7, partner max 0.3 µM)", "Label Value": "not satisfied"}
{"Compound": "CC(=O)Nc1cccc(-n2c(=O)n(C3CC3)c(=O)c3c(Nc4ccc(I)cc4F)n(C)c(=O)c(C)c32)c1 [Trametinib] + Cc1nc(-c2cn3c(n2)-c2ccc(-c4cnn(C(C)(C)C(N)=O)c4)cc2OCC3)n(C(C)C)n1 [Taselisib] (first compound max 1 µM, 7x7, partner max 10 µM)", "Label Value": "satisfied"}

Now look at this one.
Exam item: Decide: combination Emax of Cc1c2c(nn1C)CSCc1cc(n(C)n1)CSc1cc(c3ccccc3c1)OCCCc1c(C(=O)O)n(C)c3c-2c(Cl)ccc13 [AZD5991] + CC(=O)O[C@H]1C(=O)[C@@]2(C)[C@H]([C@H](OC(=O)c3ccccc3)[C@]3(O)C[C@H](OC(=O)[C@H](O)[C@@H](NC(=O)c4ccccc4)c4ccccc4)C(C)=C1C3(C)C)[C@]1(OC(C)=O)CO[C@@H]1C[C@@H]2O [Paclitaxel] (first compound max 1 µM, 7x7, partner max 3 µM) >= 0.7?
Marked response: not satisfied
